tested on: HCC1937; experiment: normalised response (% of control), CellTiter-Glo; higher = more viable cells (100 = DMSO, 0 = benzethonium chloride kill control); settings: incubation time: 72 h
Property: normalised response; scope: individual molecules
Remember to follow the number with its unit.

Sample answers from the record:
| molecule | test.readout | result.value |
| --- | --- | --- |
| CCOc1cc2ncc(C#N)c(Nc3ccc(OCc4ccccn4)c(Cl)c3)c2cc1NC(=O)/C=C/CN(C)C [Neratinib] (1000 nM) | normalised response | 66.1% |
| Cn1c(=O)c(F)c(Nc2ccc(I)cc2F)c2c(=O)n(C[C@@H](O)CO)cnc21 [TAK-733] (1000 nM) | normalised response | 68.3% |
| CC(C)(C)c1cc(NC(=O)Nc2ccc(-c3cn4c(n3)sc3cc(OCCN5CCOCC5)ccc34)cc2)no1 [Quizartinib] (1000 nM) | normalised response | 104% |
| C[C@@]1(C(=O)Nc2ccc(F)nc2)CCCN1c1nc(Nc2cc(C3CC3)n[nH]2)c2cccn2n1 (10000 nM) | normalised response | 62.6% |
| COC(=O)C[C@](O)(CCCC(C)(C)O)C(=O)O[C@@H]1C(OC)=C[C@]23CCCN2CCc2cc4c(cc2[C@H]13)OCO4 [Omacetaxine] (10000 nM) | normalised response | 17.7% |

// next entry
Lookup: Which normalised response reading was recorded for the molecule FC(F)c1nc2ccccc2n1-c1nc(N2CCOCC2)nc(N2CCOCC2)n1 [ZSTK474] (10000 nM) ?
Found: 39.1%

###

system: HCC1599; test: normalised response (% of control), CellTox Green; higher = less cell death (100 = DMSO, 0 = benzethonium chloride kill control); conditions: incubation time: 72 h
test.readout: normalised response (%)
Express it in %; write the number only.

Sample answers from the record:
| compound | unit.of.measurement | normalised response |
| --- | --- | --- |
| CCS(=O)(=O)c1cccc(-c2cc(C(=O)NC3CCN(C)CC3)c(C)c3[nH]c4ncc(C)cc4c23)c1 [TAK-901] (100 nM) | % | 99.7 |
| COC(=O)C[C@](O)(CCCC(C)(C)O)C(=O)O[C@@H]1C(OC)=C[C@]23CCCN2CCc2cc4c(cc2[C@H]13)OCO4 [Omacetaxine] (10000 nM) | % | 88.5 |
| C#Cc1cccc(Nc2ncnc3cc(OC)c(OCCCCCCC(=O)NO)cc23)c1 [CUDC-101] (100 nM) | % | 103 |
| O=C(c1ccc(OCCN2CCCCC2)cc1)c1c(-c2ccc(O)cc2)sc2cc(O)ccc12 [Raloxifene] (100 nM) | % | 92.4 |
| O=c1[nH]c(=O)n([C@H]2C[C@H](O)[C@@H](CO)O2)cc1F [Floxuridine] (10000 nM) | % | 106 |

Lookup: Which normalised response reading was recorded for the compound CC(C)C[C@H](NC(=O)[C@H](Cc1ccccc1)NC(=O)c1cnccn1)B(O)O [Bortezomib] (10 nM) ?
Found: 101

Lookup: Which normalised response reading was recorded for the compound Cc1cc(C(C)Nc2ccccc2)c2nc(N3CCOCC3)cc(=O)n2c1 (configuration not stated) [TGX-221] (10000 nM) ?
Found: 91

###

test system: SK-BR-3; assay: normalised response (% of control), CellTiter-Glo; higher = more viable cells (100 = DMSO, 0 = benzethonium chloride kill control); conditions: incubation time: 72 h
test.readout: normalised response (%)
Express it in %; write the number only.

Sample answers from the record:
| molecule | normalised response / % |
| --- | --- |
| Cn1c(=O)c(F)c(Nc2ccc(I)cc2F)c2c(=O)n(C[C@@H](O)CO)cnc21 [TAK-733] (1000 nM) | 105 |
| Cn1cnc2c(F)c(Nc3ccc(Br)cc3F)c(C(=O)NOCCO)cc21 [MEK-162] (1000 nM) | 94.5 |
| CC(C)C[C@H](NC(=O)[C@H](Cc1ccccc1)NC(=O)c1cnccn1)B(O)O [Bortezomib] (1000 nM) | 1.8 |

// next entry
Lookup: Report normalised response for FC(F)c1nc2ccccc2n1-c1nc(N2CCOCC2)nc(N2CCOCC2)n1 [ZSTK474] (10000 nM) tested on SK-BR-3.
Found: 22.4

###

tested on: CAL-85-1; experiment: normalised response (% of control), CellTox Green; higher = less cell death (100 = DMSO, 0 = benzethonium chloride kill control); details: incubation time: 72 h
test.readout: normalised response (%)
Express it in %; write the number only.

Lookup: Which normalised response reading was recorded for the molecule CN1CCN(c2ccc3nc(-c4c(N)c5c(F)cccc5[nH]c4=O)[nH]c3c2)CC1 [Dovitinib] (100 nM) ?
Found: 90.3

Lookup: Which normalised response reading was recorded for the molecule CC(C)C[C@H](NC(=O)[C@H](Cc1ccccc1)NC(=O)c1cnccn1)B(O)O [Bortezomib] (100 nM) ?
Found: -7.21

Lookup: Which normalised response reading was recorded for the molecule COC(=O)C[C@](O)(CCCC(C)(C)O)C(=O)O[C@@H]1C(OC)=C[C@]23CCCN2CCc2cc4c(cc2[C@H]13)OCO4 [Omacetaxine] (10000 nM) ?
Found: -46.3

Lookup: Which normalised response reading was recorded for the molecule CS(=O)(=O)OCCCCOS(C)(=O)=O [Busulfan] (10000 nM) ?
Found: 103

###

tested on: CAL-85-1; experiment: normalised viability (% of control), CellTiter-Blue; higher = more viable cells (about 100 = DMSO control); settings: incubation time: 72 h
test.readout: normalised viability

Sample answers from the record:
| compound | result.value |
| --- | --- |
| O=C(c1ccc(OCCN2CCCCC2)cc1)c1c(-c2ccc(O)cc2)sc2cc(O)ccc12 [Raloxifene] (3000 nM) | 94.3% |
| COc1ccc(C2=N[C@@H](c3ccc(Cl)cc3)[C@@H](c3ccc(Cl)cc3)N2C(=O)N2CCNC(=O)C2)c(OC(C)C)c1 [Nutlin-3] (3000 nM) | 101% |
| CC(=O)O[C@H]1C(=O)[C@@]2(C)[C@H]([C@H](OC(=O)c3ccccc3)[C@]3(O)C[C@H](OC(=O)[C@H](O)[C@@H](NC(=O)c4ccccc4)c4ccccc4)C(C)=C1C3(C)C)[C@]1(OC(C)=O)CO[C@@H]1C[C@@H]2O [Paclitaxel] (300 nM) | 25.5% |
| COc1cccc2c1C(=O)c1c(O)c3c(c(O)c1C2=O)C[C@@](O)(C(C)=O)C[C@@H]3O[C@H]1C[C@H](N)[C@H](O)[C@H](C)O1 [Daunorubicin] (300 nM) | 53.8% |
| C[C@@H]1C=C2C(=O)O[C@@H]3CC[C@H](C1)[C@]23O [Galiellalactone] (15000 nM) | 14.1% |
| COC(=O)C[C@](O)(CCCC(C)(C)O)C(=O)O[C@@H]1C(OC)=C[C@]23CCCN2CCc2cc4c(cc2[C@H]13)OCO4 [Omacetaxine mepesuccinate] (3000 nM) | 2% |
| CCOc1cc2ncc(C#N)c(Nc3ccc(OCc4ccccn4)c(Cl)c3)c2cc1NC(=O)/C=C/CN(C)C [Neratinib] (300 nM) | 121% |

// next entry
Lookup: Which normalised viability reading was recorded for the compound COC1=C2C[C@@H](C)C[C@H](OC)[C@H](O)[C@@H](C)/C=C(\C)[C@H](OC(N)=O)[C@@H](OC)/C=C\C=C(/C)C(=O)NC(=CC1=O)C2=O [Geldanamycin] (3000 nM) ?
Found: 11.6%

###

system: MDA-MB-231; assay: drug sensitivity score (DSS), CellTiter-Blue viability (DSS (AUC-based score)); higher = stronger viability inhibition; extreme values may be limits of the assay; conditions: incubation time: 72 h
test.readout: drug sensitivity score
Hey, just send me the number, nothing else.

Sample answers from the record:
| compound | drug sensitivity score |
| --- | --- |
| CC(=O)O[C@H]1C(=O)[C@@]2(C)[C@H]([C@H](OC(=O)c3ccccc3)[C@]3(O)C[C@H](OC(=O)[C@H](O)[C@@H](NC(=O)c4ccccc4)c4ccccc4)C(C)=C1C3(C)C)[C@]1(OC(C)=O)CO[C@@H]1C[C@@H]2O | 21.4 |
| O=c1[nH]c(=O)n([C@H]2C[C@H](O)[C@@H](CO)O2)cc1F | 8.09 |
| O=C(c1ccc(OCCN2CCCCC2)cc1)c1c(-c2ccc(O)cc2)sc2cc(O)ccc12 | 0 |

Lookup: Which drug sensitivity score reading was recorded for the compound COc1cccc2c1C(=O)c1c(O)c3c(c(O)c1C2=O)C[C@@](O)(C(C)=O)C[C@@H]3O[C@H]1C[C@H](N)[C@H](O)[C@H](C)O1 ?
Found: 13.5

Lookup: Which drug sensitivity score reading was recorded for the compound C[C@@]1(C(=O)Nc2ccc(F)nc2)CCCN1c1nc(Nc2cc(C3CC3)n[nH]2)c2cccn2n1 ?
Found: 11

Lookup: Which drug sensitivity score reading was recorded for the compound COc1ccc(C2=N[C@@H](c3ccc(Cl)cc3)[C@@H](c3ccc(Cl)cc3)N2C(=O)N2CCNC(=O)C2)c(OC(C)C)c1 ?
Found: 0

Lookup: Which drug sensitivity score reading was recorded for the compound O=P(O)(NCCCl)NCCCl [Ifosfamide mustard] ?
Found: 0
